# credit: patent US6620828B2

Would you mind telling me the reported inhibition at 0.05 µM of each entry?
Biological target: unphosphorylated VEGF-R2Δ50 (FLVK) (Homo sapiens, UniProt P35968, DEL940-989/E990V)
Construct: VEGF-R2Δ50 contains residues 806-939 and 990-1171; made in house; host or cells: baculovirus/insect cells
Sequence (P35968 with tags, fused parts or gaps DEL940-989/E990V limits assumed): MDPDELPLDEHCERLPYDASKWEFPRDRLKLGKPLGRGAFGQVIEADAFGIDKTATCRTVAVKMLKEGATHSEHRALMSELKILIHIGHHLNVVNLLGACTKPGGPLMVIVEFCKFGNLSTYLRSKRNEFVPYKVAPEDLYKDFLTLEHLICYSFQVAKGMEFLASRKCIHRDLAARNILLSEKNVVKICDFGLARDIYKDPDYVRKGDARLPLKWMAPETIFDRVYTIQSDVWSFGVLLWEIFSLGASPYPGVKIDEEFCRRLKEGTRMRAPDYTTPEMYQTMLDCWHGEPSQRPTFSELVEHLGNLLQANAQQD
Test: VEGF-R2 coupled spectrophotometric assay, unphosphorylated enzyme (FLVK)
Type: biochemical
Details: Table 3; at 50 nM

q: Recorded inhibition at 0.05 µM for "COc1cccc(C(=O)Nc2ccc(C)c(-c3noc(-c4sc(Nc5ccc(N(C)C)cc5)nc4N)n3)c2)c1" with unphosphorylated VEGF-R2Δ50 (FLVK) (Homo sapiens, UniProt P35968, DEL940-989/E990V), please?
a: 61%

q: Queued: "Nc1nc(Nc2cccc(-c3nn[nH]n3)c2)sc1-c1nc(-c2cccc(NC(=O)c3cccc(Cl)c3)c2)no1"
a: 51%

q: Okay, and "COc1cccc(C(=O)Nc2ccc(C)c(-c3noc(-c4sc(NC(C)C)nc4N)n3)c2)c1" ?
a: 54%

q: Next up: "COc1cc(Nc2nc(N)c(-c3nc(-c4cc(N)c(F)cc4F)no3)s2)cc(OC)c1OC"
a: 21%

q: Entry "COc1cccc(C(=O)Nc2cc(-c3csc(-c4sc(NC(=O)NCC5CCCCC5)nc4N)n3)c(F)cc2F)c1" please
a: 28%

q: Lookup "COc1cccc(C(=O)Nc2cc(-c3csc(-c4sc(NC(=O)NCCc5ccncc5)nc4N)n3)c(F)cc2F)c1"
a: 39%

q: Another molecule to look at: "COc1cccc(C(=O)Nc2cc(-c3csc(-c4sc(NC(=O)NC[C@@H]5CCCO5)nc4N)n3)c(F)cc2F)c1"
a: 29%
